Numbers sourced from patent US12448369B2.

# System: Rabbit Psoas myofibrils (skeletal myosin ATPase)
# METHOD DESCRIPTION: Myofibril ATPase assay, rabbit psoas (skeletal) myofibrils
# Type: biochemical
# PROTOCOL CONDITIONS: rabbit psoas myofibrils; Y75 value
PARAMETER: Skeletal EC25 (µM)

Answered cases to consult:
- Cc1c(CC(=O)N[C@@H](C)c2ccc(F)cc2F)c(=O)[nH]c2ccnc(I)c12 [compound 353]: 0.06
- Cc1c(CC(=O)N[C@H](C)c2ccc(C#N)cn2)c(=O)[nH]c2ccc(OC(F)(F)F)nc12 [compound 449]: 100.00

P = Cc1c(CC(=O)N[C@H](C)c2ccc(F)cc2F)c(=O)[nH]c2ccnc(C#N)c12 [compound 269]
Q = Cc1nccc2[nH]c(=O)c(CC(=O)NC[C@@H](CO)c3ccccc3)c(C)c12 [compound 494]
I would appreciate it if you could say which entry, P or Q , has the lower Skeletal EC25 value. Identify your selection by its label. P
(P: 2.47 µM, Q: 100.00 µM)

a = Cc1nccc2[nH]c(=O)c(CC(=O)N[C@H](CO)c3ncc(F)cc3F)c(C)c12 (single isomer, unassigned) [compound 303]
b = COc1ccc([C@@H](C)NC(=O)Cc2c(C)c3c(C)nccc3[nH]c2=O)cn1 (single isomer, unassigned) [compound 290]
For this pair, a and b , which shows a numerically higher Skeletal EC25? Identify your selection by its label. b
(b: 100.00 µM, a: 40.83 µM)

###

# System: Porcine atria myofibrils (atrial myosin ATPase)
# METHOD DESCRIPTION: Myofibril ATPase assay, porcine atria myofibrils
# Format: biochemical
# PROTOCOL CONDITIONS: Y75 value (no ‡ mark); porcine atria myofibrils
PARAMETER: Atrial EC25 (µM)

- C[C@H](NC(=O)C(F)(F)c1cc2c(F)c(F)ccc2[nH]c1=O)c1cc(C#N)ccn1 (single isomer, unassigned): 31.66

a = Cc1nc(C#N)ncc1[C@@H](C)NC(=O)Cc1cc2cc(F)c(F)cc2[nH]c1=O
b = C[C@@H](NC(=O)Cc1cc2cc(F)c(F)cc2[nH]c1=O)c1cnc(C#N)nc1
c = Cc1c(CC(=O)N[C@@H](C)c2cnc(C#N)cn2)c(=O)[nH]c2ccc(F)cc12
Rank ascending by Atrial EC25. Order the labels as requested and give them as your answer. c, a, b

###

# Test system: Porcine atria myofibrils (atrial myosin ATPase)
# METHOD DESCRIPTION: Myofibril ATPase assay, porcine atria myofibrils
# Type: biochemical
# PROTOCOL CONDITIONS: Y75 value (no ‡ mark); porcine atria myofibrils
# Procedure: Example 1. Myofibril ATPase Assay Myofibril ATPase assays are known in the art to be useful in evaluating small molecules for the treatment of HCM and other cardiac indications. Myosin ATPase activity is assessed by using a coupled reaction system, in which ADP generated by the myosin ATPase function is coupled to the disappearance of NADH through the pyruvate kinase/lactate dehydrogenase (PK-LDH) system. […]
PARAMETER: Atrial EC25 (µM)

- Cc1ccncc1[C@@H](C)NC(=O)Cc1c(C)c2cc(F)ccc2[nH]c1=O [compound 1048]: 0.29

A = Cc1c(CC(=O)N[C@H](C)c2ccc(F)cn2)c(=O)[nH]c2cccc(F)c12 [compound 43]
B = Cc1c(CC(=O)N[C@@H](C)c2ncc(C#N)cn2)c(=O)[nH]c2ccc(F)c(F)c12 [compound 1124]
For this pair, A and B , which shows a numerically higher Atrial EC25? Identify your selection by its label. A

###

# STUDY SYSTEM: Porcine ventricle myofibrils (ventricular myosin ATPase) (Sus scrofa, UniProt P79293)
# Construct: Myofibrils from porcine cardiac muscle was isolated from the left ventricle of Yucatan minipigs; tissue Exemplar Genetics; host or cells: left ventricle of Yucatan minipigs, myofibrils prepared in house
# Sequence (P79293 whole entry): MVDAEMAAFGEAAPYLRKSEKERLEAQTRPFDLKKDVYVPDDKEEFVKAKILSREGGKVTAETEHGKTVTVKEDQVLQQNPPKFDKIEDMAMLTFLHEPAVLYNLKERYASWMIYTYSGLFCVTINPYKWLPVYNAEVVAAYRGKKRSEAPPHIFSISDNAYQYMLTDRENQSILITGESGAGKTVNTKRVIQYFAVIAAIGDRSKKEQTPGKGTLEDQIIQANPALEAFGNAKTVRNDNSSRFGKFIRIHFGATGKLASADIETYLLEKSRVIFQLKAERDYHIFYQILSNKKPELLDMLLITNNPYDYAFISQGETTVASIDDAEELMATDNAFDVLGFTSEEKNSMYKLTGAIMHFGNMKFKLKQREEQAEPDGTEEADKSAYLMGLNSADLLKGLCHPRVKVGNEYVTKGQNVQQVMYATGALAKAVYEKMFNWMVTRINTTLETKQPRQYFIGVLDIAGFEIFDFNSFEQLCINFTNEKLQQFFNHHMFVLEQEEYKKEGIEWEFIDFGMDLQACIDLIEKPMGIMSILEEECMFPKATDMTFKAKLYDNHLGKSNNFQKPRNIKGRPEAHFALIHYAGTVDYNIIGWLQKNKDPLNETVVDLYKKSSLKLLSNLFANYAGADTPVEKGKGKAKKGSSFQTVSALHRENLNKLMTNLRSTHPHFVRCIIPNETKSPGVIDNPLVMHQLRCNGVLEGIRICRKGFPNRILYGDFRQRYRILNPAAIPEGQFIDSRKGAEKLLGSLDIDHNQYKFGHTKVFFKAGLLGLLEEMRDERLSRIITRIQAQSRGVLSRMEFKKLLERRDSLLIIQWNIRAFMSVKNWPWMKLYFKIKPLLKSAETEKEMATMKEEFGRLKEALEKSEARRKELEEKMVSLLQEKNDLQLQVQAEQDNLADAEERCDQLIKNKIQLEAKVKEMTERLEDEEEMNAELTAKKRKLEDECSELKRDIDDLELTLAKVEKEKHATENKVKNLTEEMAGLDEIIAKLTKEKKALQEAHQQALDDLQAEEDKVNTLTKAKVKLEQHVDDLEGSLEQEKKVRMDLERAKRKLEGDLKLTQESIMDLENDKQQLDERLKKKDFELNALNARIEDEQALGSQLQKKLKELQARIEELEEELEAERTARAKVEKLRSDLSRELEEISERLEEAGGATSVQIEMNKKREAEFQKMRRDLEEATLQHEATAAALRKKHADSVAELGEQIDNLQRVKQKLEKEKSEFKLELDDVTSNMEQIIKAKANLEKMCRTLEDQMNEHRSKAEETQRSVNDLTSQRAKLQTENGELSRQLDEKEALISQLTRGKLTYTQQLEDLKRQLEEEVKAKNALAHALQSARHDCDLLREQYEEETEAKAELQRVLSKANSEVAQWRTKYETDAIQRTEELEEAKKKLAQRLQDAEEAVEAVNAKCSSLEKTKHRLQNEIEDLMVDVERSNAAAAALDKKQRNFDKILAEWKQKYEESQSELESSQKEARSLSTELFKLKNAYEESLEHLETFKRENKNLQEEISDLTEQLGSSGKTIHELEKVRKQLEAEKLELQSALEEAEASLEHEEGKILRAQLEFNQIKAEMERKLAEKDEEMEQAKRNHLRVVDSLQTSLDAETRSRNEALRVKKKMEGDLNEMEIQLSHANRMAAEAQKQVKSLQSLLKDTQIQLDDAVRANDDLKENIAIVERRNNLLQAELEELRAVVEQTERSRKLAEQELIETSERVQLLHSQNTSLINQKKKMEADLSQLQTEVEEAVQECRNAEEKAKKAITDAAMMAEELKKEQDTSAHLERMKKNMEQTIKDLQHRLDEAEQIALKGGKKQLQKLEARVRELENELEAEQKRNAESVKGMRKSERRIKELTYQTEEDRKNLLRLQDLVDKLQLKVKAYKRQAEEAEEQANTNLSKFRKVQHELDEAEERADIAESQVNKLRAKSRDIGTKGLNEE
# METHOD DESCRIPTION: Myofibril ATPase assay, porcine ventricle myofibrils
# Format: biochemical, porcine (Yucatan minipigs)
# PROTOCOL CONDITIONS: porcine ventricle myofibrils; Y75 value
PARAMETER: Ventricular EC25 (µM)

Answered cases to consult:
* C[C@H](NC(=O)Cc1c(C(F)(F)F)c2c(C3CC3)nccc2[nH]c1=O)c1ccc(C#N)nn1 (single isomer, unassigned) [compound 3004] | 100.00
* Cc1nccc2[nH]c(=O)c([C@H](C)C(=O)N[C@H](C)c3ncc(C#N)cc3F)c(C)c12 (single isomer, unassigned) [compound 192] | 14.65
* Cc1c(CC(=O)N[C@H](C)c2cnc(C#N)nc2)c(=O)[nH]c2ccc(C(F)(F)F)nc12 [compound 457] | 100.00
* Cc1nc(C#N)cnc1[C@@H](C)NC(=O)C(F)(F)c1c(C)c2c(C)nccc2[nH]c1=O (single isomer, unassigned) [compound 3503] | 5.70
* Cc1nccc2[nH]c(=O)c(CC(=O)N[C@@H](C)c3ccccc3O)c(C)c12 (single isomer, unassigned) [compound 321] | 100.00

1 = Cc1c(CC(=O)N[C@@H](C)c2ccc(C#N)cn2)c(=O)[nH]c2ccnc(C(F)(F)F)c12 [compound 156]
2 = Cc1c(CC(=O)N[C@@H](C)c2ncc(F)cc2F)c(=O)[nH]c2ccc(O)nc12 (single isomer, unassigned) [compound 223]
I would appreciate it if you could say which entry, 1 or 2 , has the lower Ventricular EC25 value. Identify your selection by its label. 1
(1: 3.12 µM, 2: 61.19 µM)

###

# Test system: Porcine atria myofibrils (atrial myosin ATPase)
# METHOD DESCRIPTION: Myofibril ATPase assay, porcine atria myofibrils
# Assay type: biochemical
# PROTOCOL CONDITIONS: Y75 value (no ‡ mark); porcine atria myofibrils
PARAMETER: Atrial EC25 (µM)

I = Cc1c(C2(C(=O)N[C@@H]3CCc4cc(C#N)cnc43)CC2)c(=O)[nH]c2ccc(F)c(F)c12 (single isomer, unassigned)
II = Cc1c(CC(=O)N[C@@H](C)c2ccc(F)cc2F)c(=O)[nH]c2ccc(F)c(C3CC3)c12
III = C[C@H](NC(=O)Cc1c(C2CC2)c2cc(F)ccc2[nH]c1=O)c1ccc(C#N)nn1 (single isomer, unassigned)
IV = Cc1cc(C#N)cnc1[C@@H](C)NC(=O)Cc1c(O)c2c(C)c(F)ccc2[nH]c1=O
Order the above molecules by increasing Atrial EC25. Order the labels as requested and give them as your answer. II, III, IV, I
(II: 0.04 µM, III: 0.23 µM, IV: 9.16 µM, I: 100.00 µM)

###

# Tested on: Rabbit Psoas myofibrils (skeletal myosin ATPase)
# METHOD DESCRIPTION: Myofibril ATPase assay, rabbit psoas (skeletal) myofibrils
# Format: biochemical
# PROTOCOL CONDITIONS: rabbit psoas myofibrils; Y75 value
PARAMETER: Skeletal EC25 (nM)

Answered cases to consult:
* CCOc1nccc2[nH]c(=O)c([C@H](C)C(=O)N[C@@H](C)c3ccc(F)cc3F)c(C(F)(F)F)c12 (single isomer, unassigned) | 130
* Cc1cc2[nH]c(=O)c(CC(=O)N[C@@H](C)c3ccc(F)cc3F)c(C)c2cn1 | 4590
* Cc1c(CC(=O)N[C@H](C)c2ncc(F)cc2F)c(=O)[nH]c2ccnc(C(F)(F)F)c12 (single isomer, unassigned) | 3860
* Cc1c(CC(=O)N[C@@H](C)c2ccc(C#N)cc2F)c(=O)[nH]c2ccnc(OC3CC3)c12 | 110
* C[C@H](NC(=O)Cc1cc2nc(O)ccc2[nH]c1=O)c1ccc(F)cc1F | 100000
* CCOc1nccc2[nH]c(=O)c(CC(=O)N[C@@H](C)c3ccc(F)cc3F)c(C(F)(F)F)c12 | 30

a = Cc1c(CC(=O)N[C@@H](CO)c2ccc(F)cc2F)c(=O)[nH]c2ccnc(C#N)c12
b = C[C@H](NC(=O)Cc1c(C(F)(F)F)c2c(C3CC3)nccc2[nH]c1=O)c1ccc(C#N)cn1 (single isomer, unassigned)
For this pair, a and b , which shows a numerically higher Skeletal EC25? Identify your selection by its label. b
(b: 100000 nM, a: 20 nM)

I = Cc1c(CC(=O)N[C@@H]2COc3cccnc32)c(=O)[nH]c2ccnc(C#N)c12 (single isomer, unassigned)
II = Cc1c(CC(=O)N[C@@H](C)c2ccc(F)cc2F)c(=O)[nH]c2ccncc12
For this pair, I and II , which shows a numerically higher Skeletal EC25? Identify your selection by its label. I
(I: 2210 nM, II: 170 nM)

I = Cc1nccc2[nH]c(=O)c(C(F)(F)C(=O)N[C@@H](C)c3ncc(C#N)cc3F)c(C)c12 (single isomer, unassigned)
II = Cc1nccc2[nH]c(=O)c(CC(=O)N[C@H](C)c3ccc(C#N)cc3F)c(Cl)c12
III = CCNc1nccc2[nH]c(=O)c(CC(=O)N[C@@H](C)c3ccc(F)cc3F)c(C)c12
IV = Cc1c(CC(=O)N[C@@H](C)c2ncc(C#N)cc2F)c(=O)[nH]c2ccc(O)nc12
Rank ascending by Skeletal EC25. Order the labels as requested and give them as your answer. III, II, I, IV
